# TGI values compiled below
System: TK-10 renal
protocol-text: NCI tumour cell line growth inhibition, 48 h

As a guide, the following entries are already answered.
C/C(=C\CNc1ncnc2c1ncn2C1CCCCO1)COP(=O)(O)O (stereo not given) ... > 100 µM
[CH3][Ge]([CH3])([CH2]CC#N)[S]c1ccccc1 ... 72.8 µM
O=C1CC[C@@H](S(=O)(=O)c2ccccc2)[C@H](/C=C/c2ccccc2)O1 ... > 100 µM
O=[N+]([O-])c1ccc(C2=NOC(c3ccccc3)N2C23CC4CC(CC(C4)C2)C3)cc1 (stereo not given) ... > 100 µM
CCN1CCCCCCCCCC(=N/O)/C(=N\O)C1 ... > 100 µM

Query block: Could you tell me which TGI is on file for O=C(CCl)N1CCN(c2ccccc2)CC1 ?
Result block: 34.8 µM

Query block: Could you tell me which TGI is on file for Nc1ncc(-c2ccc3ncnc(N4CCc5cc(F)c(Cl)cc54)c3c2)cc1C=O ?
Result block: 3.65 µM

Query block: Could you tell me which TGI is on file for COC(=O)COc1ccccc1/C=C1/N=C(c2ccccc2)N(c2c(C)n(C)n(-c3ccccc3)c2=O)C1=O ?
Result block: > 100 µM

Query block: Could you tell me which TGI is on file for CC(=O)n1nc(-c2[nH]c(C)c(-c3nn(C(C)=O)c(=S)o3)c2C)oc1=S ?
Result block: > 100 µM

Query block: Could you tell me which TGI is on file for O=C(CCl)N1CCN(c2ccccn2)CC1 ?
Result block: 35.8 µM

Query block: Could you tell me which TGI is on file for Cc1cccc2c(N)c3cccc(C(=O)NCCNCCN)c3nc12 ?
Result block: 95.4 µM

Query block: Could you tell me which TGI is on file for COc1ncnc2c(Cl)c(C(O)c3ccccc3)c(Cl)cc12 (stereo not given) ?
Result block: 63.4 µM

Query block: Could you tell me which TGI is on file for Cc1ccc(NC(=O)CC(=O)N2N=C(N(c3ccccc3)c3ccccc3)CC2c2ccccc2)cc1 (stereo not given) ?
Result block: > 100 µM

Query block: Could you tell me which TGI is on file for Cc1c(C(=O)/C=C/c2ccc([N+](=O)[O-])cc2)[n+](=O)c2ccccc2n1[O-] ?
Result block: > 100 µM

Query block: Could you tell me which TGI is on file for CCNCCS(=O)(=O)NC[C@@]1(c2ccccc2)SC(NC(=O)C(C)(C)C)=NN1C(=O)C(C)(C)C ?
Result block: > 100 µM

Query block: Could you tell me which TGI is on file for C=C(Cl)[C@](Cl)(CBr)CC[C@@H](Br)C(C)(C)Cl ?
Result block: 3.4 µM

----------
Tested on: SK-MEL-2 melanoma
protocol-text: NCI tumour cell line growth inhibition, 48 h
# TGI values compiled below

As a guide, the following entries are already answered.
CCCCN(CCCC)CC(C(=O)Nc1ccc([N+](=O)[O-])cc1[N+](=O)[O-])/C(C)=N\NC(=O)c1ccncc1 (stereo not drawn) ... > 100 µM
CC(=O)Nc1ccc2cc(C#N)c(=O)[nH]c2n1 ... > 100 µM
COc1ccc(C(=O)C(c2ccc(OC)cc2)C2(O)C(=O)Nc3c(Cl)cc(Cl)cc32)cc1 (stereo not drawn) ... 31.5 µM
CC[C@]1(O)CC2CN(CCc3c([nH]c4ccccc34)C(C(=O)OC)(c3cc4c(cc3OC)N(C=O)[C@H]3[C@@](O)(C(=O)OC)[C@H](OC(C)=O)[C@]5(CC)[C@@H]6C[C@@H]6CN6CC[C@]43[C@@H]65)C2)C1 (stereo partly drawn) ... 3.67 µM
[pH]1p2[pH]p3p1p3[pH]2.c1cc[c]([Ge]([c]2ccccc2)[c]2ccccc2)cc1.c1cc[c]([Ge]([c]2ccccc2)[c]2ccccc2)cc1.c1cc[c]([Ge]([c]2ccccc2)[c]2ccccc2)cc1 ... 34.9 µM

--- query ---
Query block: Could you tell me which TGI is on file for CC(C)(C)OC(=O)NC(Cc1ccc(OC(C)(C)C)cc1)C(=O)N[C@H]1CC[C@H](C(=O)O)C1 (stereo partly drawn) ?
Result block: > 100 µM

Where do the numbers come from? From PubChem BioAssay (NCI).
